B1: tRNA (parent)
chain: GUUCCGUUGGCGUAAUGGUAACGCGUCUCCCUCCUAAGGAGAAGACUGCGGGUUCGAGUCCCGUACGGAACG

- Variants of: B1
- test-summary: yeast fitness relative to wild type (ratio to wild type); higher = fitter; tRNA-Arg(CCU), competitive growth, 37 C, YPD
Fewer inactive variants are shown than the library holds.

variant-label	yeast fitness
A21G C22G C49U G51A	0.603
G10A G68A A70G	0.596
U8A G67A	0.586
A20G G38A C46U A70U	0.594
A20G C34A A42U G58A C62U G63A	0.583
U7A G10C	0.617
C5A C30G C31G U32C	0.598
G9A C24G	0.594
C29U A43G C66U	0.598
G39A U47A G68C	0.597
